tested on: Klebsiella pneumoniae; experiment: Antibacterial activity against Klebsiella pneumoniae ATCC 13883 using 100 uL of test compound after 24 hrs by agar well diffusion method; assay type: functional

molecule	diameter of the inhibition zone (DIZ)
CC(O)(Cc1cn(Cc2ccccc2)nn1)c1ccc(S(=O)(=O)c2ccccc2)cc1 (stereo not given)	24 mm
O=C(Cn1cc(CC(O)c2ccc(S(=O)(=O)c3ccccc3)cc2)nn1)c1ccc(F)cc1 (stereo not given)	15 mm
O=C(Cn1cc(CC(O)c2ccc(S(=O)(=O)c3ccccc3)cc2)nn1)c1ccccc1 (stereo not given)	22 mm
CC(O)(Cc1cn(CC(=O)c2ccc(S(=O)(=O)c3ccccc3)cc2)nn1)c1ccc(S(=O)(=O)c2ccccc2)cc1 (stereo not given)	18 mm

* * *

test system: Klebsiella pneumoniae; assay: Antibacterial activity against Klebsiella pneumoniae ATCC 13883 using 100 uL of test compound after 24 hrs by agar well diffusion method; format: functional
We begin with a simple list: items and their reported diameter of the inhibition zone (DIZ).

compound	diameter of the inhibition zone (DIZ), mm
CC(O)(Cc1cn(CC(=O)c2ccc(Br)cc2)nn1)c1ccc(S(=O)(=O)c2ccccc2)cc1 (centres undefined)	19
O=C(Cn1cc(CC(O)c2ccc(S(=O)(=O)c3ccccc3)cc2)nn1)c1ccc(Br)cc1 (centres undefined)	24
CC(Cc1cn(CC(=O)c2ccc(Br)cc2)nn1)(OCc1cn(CC(=O)c2ccc(Br)cc2)nn1)c1ccc(S(=O)(=O)c2ccccc2)cc1 (centres undefined)	26
CC(O)(Cc1cn(CC(=O)c2ccc(F)cc2)nn1)c1ccc(S(=O)(=O)c2ccccc2)cc1 (centres undefined)	19

* * *

tested on: Priestia megaterium; assay: Antibacterial activity against Bacillus megaterium ATCC 9885 using 100 uL of test compound after 24 hrs by agar well diffusion method; type: functional
measured.endpoint: diameter of the inhibition zone (DIZ)

molecule	measured.endpoint	recorded.measurement
CC(Cc1cn(CC(=O)c2ccc(Br)cc2)nn1)(OCc1cn(CC(=O)c2ccc(Br)cc2)nn1)c1ccc(S(=O)(=O)c2ccccc2)cc1 (centres undefined)	diameter of the inhibition zone (DIZ)	23 mm
CC(O)(Cc1cn(CC(=O)c2ccc(S(=O)(=O)c3ccccc3)cc2)nn1)c1ccc(S(=O)(=O)c2ccccc2)cc1 (centres undefined)	diameter of the inhibition zone (DIZ)	17 mm
O=S(=O)(c1ccccc1)c1ccc(C(O)Cc2cn(Cc3ccccc3)nn2)cc1 (centres undefined)	diameter of the inhibition zone (DIZ)	14 mm

* * *

test system: Priestia megaterium; experiment: Antibacterial activity against Bacillus megaterium ATCC 9885 using 100 uL of test compound after 24 hrs by agar well diffusion method; type: functional
Active and inactive are the calls of the source. The calls are words filed in the database; no cut-off is given here.

compound	diameter of the inhibition zone (DIZ)
CC(Cc1cn(Cc2ccccc2)nn1)(OCc1cn(Cc2ccccc2)nn1)c1ccc(S(=O)(=O)c2ccccc2)cc1 (stereo unspecified)	17 mm
O=C(Cn1cc(CC(O)c2ccc(S(=O)(=O)c3ccccc3)cc2)nn1)c1ccc(F)cc1 (stereo unspecified)	17 mm
CC(Cc1cn(CC(=O)c2ccc(S(=O)(=O)c3ccccc3)cc2)nn1)(OCc1cn(CC(=O)c2ccc(S(=O)(=O)c3ccccc3)cc2)nn1)c1ccc(S(=O)(=O)c2ccccc2)cc1 (stereo unspecified)	22 mm
O=C(Cn1cc(CC(O)c2ccc(S(=O)(=O)c3ccccc3)cc2)nn1)c1ccccc1 (stereo unspecified)	inactive
CC(O)(Cc1cn(CC(=O)c2ccccc2)nn1)c1ccc(S(=O)(=O)c2ccccc2)cc1 (stereo unspecified)	15 mm
O=C(Cn1cc(CC(O)c2ccc(S(=O)(=O)c3ccccc3)cc2)nn1)c1ccc(Br)cc1 (stereo unspecified)	19 mm
O=C(Cn1cc(COC(Cc2cn(CC(=O)c3ccc(Br)cc3)nn2)c2ccc(S(=O)(=O)c3ccccc3)cc2)nn1)c1ccc(Br)cc1 (stereo unspecified)	20 mm
O=S(=O)(c1ccccc1)c1ccc(C(Cc2cn(Cc3ccccc3)nn2)OCc2cn(Cc3ccccc3)nn2)cc1 (stereo unspecified)	14 mm
CC(Cc1cn(CC(=O)c2ccc(F)cc2)nn1)(OCc1cn(CC(=O)c2ccc(F)cc2)nn1)c1ccc(S(=O)(=O)c2ccccc2)cc1 (stereo unspecified)	17 mm
CC(O)(Cc1cn(CC(=O)c2ccc(F)cc2)nn1)c1ccc(S(=O)(=O)c2ccccc2)cc1 (stereo unspecified)	17 mm
O=C(Cn1cc(COC(Cc2cn(CC(=O)c3ccccc3)nn2)c2ccc(S(=O)(=O)c3ccccc3)cc2)nn1)c1ccccc1 (stereo unspecified)	20 mm
O=C(Cn1cc(COC(Cc2cn(CC(=O)c3ccc(F)cc3)nn2)c2ccc(S(=O)(=O)c3ccccc3)cc2)nn1)c1ccc(F)cc1 (stereo unspecified)	17 mm
O=C(Cn1cc(CC(O)c2ccc(S(=O)(=O)c3ccccc3)cc2)nn1)c1ccc(S(=O)(=O)c2ccccc2)cc1 (stereo unspecified)	15 mm
CC(O)(Cc1cn(CC(=O)c2ccc(Br)cc2)nn1)c1ccc(S(=O)(=O)c2ccccc2)cc1 (stereo unspecified)	inactive
CC(Cc1cn(CC(=O)c2ccccc2)nn1)(OCc1cn(CC(=O)c2ccccc2)nn1)c1ccc(S(=O)(=O)c2ccccc2)cc1 (stereo unspecified)	17 mm
CC(O)(Cc1cn(Cc2ccccc2)nn1)c1ccc(S(=O)(=O)c2ccccc2)cc1 (stereo unspecified)	17 mm
